Biological target: LXRα [NR1H3] ligand binding domain (Homo sapiens, UniProt Q13133)
Sequence (Q13133 209-447 limits assumed): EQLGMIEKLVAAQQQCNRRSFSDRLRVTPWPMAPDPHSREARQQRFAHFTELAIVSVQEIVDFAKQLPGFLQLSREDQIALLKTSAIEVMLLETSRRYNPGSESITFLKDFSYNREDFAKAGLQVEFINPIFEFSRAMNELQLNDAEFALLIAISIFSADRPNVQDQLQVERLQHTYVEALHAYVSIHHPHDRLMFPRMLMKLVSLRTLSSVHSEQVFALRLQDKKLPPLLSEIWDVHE
Measured Parameter: pKi
pKi is defined as minus the log10 of a concentration measured in mol/L.

Find the recorded pKi belonging to C[C@H](CCCC(C)(C)O)[C@H]1CC[C@H]2[C@@H]3CC=C4C[C@@H](O)CC[C@]4(C)[C@H]3CC[C@]12C [25-hydroxycholesterol] and report it.
5.40
